src = ChEMBL document CHEMBL3988442

This listing pairs molecules with measured Percent Effect.
Molecular target: Histidine--tRNA ligase (Leishmania infantum) (UniProt A4I591)
Sequence (whole entry): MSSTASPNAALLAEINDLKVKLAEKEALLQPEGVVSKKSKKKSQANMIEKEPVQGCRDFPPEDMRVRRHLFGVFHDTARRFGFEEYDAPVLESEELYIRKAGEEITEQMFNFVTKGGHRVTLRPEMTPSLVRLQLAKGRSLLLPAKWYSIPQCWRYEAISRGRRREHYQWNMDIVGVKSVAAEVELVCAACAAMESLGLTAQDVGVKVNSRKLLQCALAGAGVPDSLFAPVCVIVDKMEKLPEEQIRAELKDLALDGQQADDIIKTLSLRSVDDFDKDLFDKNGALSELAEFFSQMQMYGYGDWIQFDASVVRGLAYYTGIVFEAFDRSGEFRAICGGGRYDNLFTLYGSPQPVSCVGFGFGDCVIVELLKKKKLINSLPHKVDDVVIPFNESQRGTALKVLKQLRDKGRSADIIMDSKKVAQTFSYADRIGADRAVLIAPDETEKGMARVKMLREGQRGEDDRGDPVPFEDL
Test: Leishmania infantum Histidine tRNA synthetase (LdHisRS)
Format: functional
Set-up: scale not given: in the data most compounds retested in dose-response had high values
Conditions: 30 µM
Hit rate of the full screen: of about 69,000 compounds, about 420 (0.61%) showed an effect of 50% or more. Many of the other results were omitted from the sample, so strong results are more common in it than they were.
Kindly provide the numeric value in % only, without the unit symbol.

Prompt: Record Cc1cc(-c2nn(C)c(Cl)c2CN2CC[C@H](CO)[C@@H](O)C2)no1 : what is its Percent Effect with Histidine--tRNA ligase (Leishmania infantum) (UniProt A4I591)?
Completion: 2.78

Prompt: Proceed to Cc1cc(-c2nn(C)c(Cl)c2CN2CCOCC(O)C2)no1 (stereo not drawn)
Completion: 15.2

Prompt: Could you do the same for Cc1noc([C@@H]2C[C@@H]3CCN(c4nnc(C)s4)C[C@H]3O2)n1 , please?
Completion: 13.5

Prompt: Now consider Cc1nc2ccccc2nc1CN(C)CC1CCCN1c1cccnn1 (stereo not drawn) .
Completion: 34.7

###

molecular target: Histidine--tRNA ligase (Leishmania infantum) (UniProt A4I591); experiment: Leishmania infantum Histidine tRNA synthetase (LdHisRS); format: functional; set-up: scale not given: in the data most compounds retested in dose-response had high values; details: 30 µM
The whole screen tested about 69,000 compounds, of which about 420 (0.61%) showed an effect of 50% or more. Shown is part of a subset that was picked to be rich in strong results.
Simple rule here: Percent Effect less than 20% is fulfilled, otherwise not fulfilled.

Solved entries:
- Compound: "CCCS(=O)(=O)N1C[C@H](N(C)Cc2ccco2)[C@@H]2OCCC[C@@H]21"
  Category: "fulfilled"
- Compound: "Cc1oncc1C(=O)N1CC[C@H]2[C@H](CO[C@@H]2CNS(C)(=O)=O)C1"
  Category: "not fulfilled"
- Compound: "NC(=O)NC(=O)CCN1CCN(CC2CC2)c2ccccc21"
  Category: "not fulfilled"
- Compound: "NC(=O)NC(=O)CN1CCN(CC2CC2)c2ccccc21"
  Category: "not fulfilled"
- Compound: "Cc1nc(N)cc(N2CCCC(COc3cccc(F)c3)C2)n1 (stereo unspecified)"
  Category: "not fulfilled"
- Compound: "CC(C)=CCN1CCN(Cc2nccn2C)[C@H]2CS(=O)(=O)C[C@H]21"
  Category: "fulfilled"
- Compound: "CC(C)=CCN1CCN(C(=O)c2snnc2C)[C@H]2CS(=O)(=O)C[C@H]21"
  Category: "fulfilled"
- Compound: "Cc1ccccc1OCC1CCCN(c2cc(N)nc(N)n2)C1 (stereo unspecified)"
  Category: "not fulfilled"
- Compound: "Nc1cc(N2CCCC(COc3ccc(F)cc3)C2)nc(N)n1 (stereo unspecified)"
  Category: "not fulfilled"
- Compound: "Cc1cn2nc(N(C)C3CCCN(c4cccnn4)C3)sc2n1 (stereo unspecified)"
  Category: "not fulfilled"

Prompt: Dear colleague, could you confirm whether Percent Effect of Cc1cccc(COC[C@H]2CC[C@H]3[C@H](CCN3C(=O)CC3CC3)O2)n1 falls below 20%? Thanks.
Completion: fulfilled

###

Molecular target: Histidine--tRNA ligase (Leishmania infantum)
Sequence (whole entry): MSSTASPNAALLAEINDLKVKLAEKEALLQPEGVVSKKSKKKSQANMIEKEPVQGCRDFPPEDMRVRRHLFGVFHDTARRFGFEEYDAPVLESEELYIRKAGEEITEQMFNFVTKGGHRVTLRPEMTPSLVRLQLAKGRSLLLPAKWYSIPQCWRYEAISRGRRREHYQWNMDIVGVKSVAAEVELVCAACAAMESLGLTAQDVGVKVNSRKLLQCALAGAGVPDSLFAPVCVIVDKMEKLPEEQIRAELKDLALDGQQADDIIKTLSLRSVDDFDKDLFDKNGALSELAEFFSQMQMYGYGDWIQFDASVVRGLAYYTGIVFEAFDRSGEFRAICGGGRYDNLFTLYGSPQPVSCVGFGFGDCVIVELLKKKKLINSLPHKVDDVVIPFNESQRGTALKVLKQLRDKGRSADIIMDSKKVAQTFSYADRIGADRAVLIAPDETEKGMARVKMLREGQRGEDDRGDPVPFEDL
Experiment: Leishmania infantum Histidine tRNA synthetase (LdHisRS)
Format: functional
Parameters: scale not given: in the data most compounds retested in dose-response had high values
Details: 30 µM
Screen size: about 69,000 compounds; about 420 (0.61%) showed an effect of 50% or more. The sample holds strong results, similar compounds and a random draw of the others, so the mix is not that of the screen.
Each entry gets 0 if its Percent Effect stays under 10%, and 1 if its Percent Effect is 10% or above.

Some solved cases for reference:
- Molecule: "CNC(=O)[C@@]12CCO[C@@H]1CCN(S(=O)(=O)c1ccc(C)cc1)C2"
  Category: 0
- Molecule: "CN(C)C(=O)CN1CC[C@H]2CN(S(C)(=O)=O)C[C@@H]2C1=O"
  Category: 1
- Molecule: "COc1ccc2c(c1)CC(NCc1cccc(CO)c1)CC2 (stereo not given)"
  Category: 1
- Molecule: "Cc1nc(CN2C[C@@H]3CN(C(=O)c4cnccn4)C[C@@H]3C2=O)cs1"
  Category: 0

Could you now consider this next molecule?
Prompt: Given the entry CC(C)(C)c1cc(CN2C[C@H]3CC[C@@H]2CN(Cc2cscn2)C3)n[nH]1 , answer whether its Percent Effect meets or surpasses 10%.
Completion: 1

###

Measured Percent Effect of individual entries
target: Histidine--tRNA ligase (Leishmania infantum) (UniProt A4I591); assay: Leishmania infantum Histidine tRNA synthetase (LdHisRS); format: functional; design: scale not given: in the data most compounds retested in dose-response had high values; conditions: 30 µM
The whole screen tested about 69,000 compounds, of which about 420 (0.61%) showed an effect of 50% or more. For the sample, strong results were picked, then their nearest neighbours and some compounds at random.
Number first, unit second.

Answered cases to consult:
- Compound: "CCc1cc(N2CCS(=O)(=O)CC2)n2nc(C)c(C)c2n1"
  Assayed Target: "Histidine--tRNA ligase (Leishmania infantum) (UniProt A4I591)"
  Assay Endpoint: "Percent Effect"
  Measured Value: "13.3%"
- Compound: "O=C(NC1CC1)[C@@H]1C[C@@H]2CCN(Cc3ccccc3)C[C@H]2O1"
  Assayed Target: "Histidine--tRNA ligase (Leishmania infantum) (UniProt A4I591)"
  Assay Endpoint: "Percent Effect"
  Measured Value: "23%"
- Compound: "c1cc2nccc(CC3CCCN(Cc4c[nH]cn4)CC3)c2cn1 (stereo unspecified)"
  Assayed Target: "Histidine--tRNA ligase (Leishmania infantum) (UniProt A4I591)"
  Assay Endpoint: "Percent Effect"
  Measured Value: "24.7%"
- Compound: "CCNC(=O)N1CCc2ccc(NC(=O)NCc3ccsc3)cc21"
  Assayed Target: "Histidine--tRNA ligase (Leishmania infantum) (UniProt A4I591)"
  Assay Endpoint: "Percent Effect"
  Measured Value: "31.7%"
- Compound: "CCCC(=O)N(CCN1CCOCC1)c1nc2c(OC)ccc(C)c2s1"
  Assayed Target: "Histidine--tRNA ligase (Leishmania infantum) (UniProt A4I591)"
  Assay Endpoint: "Percent Effect"
  Measured Value: "-3.48%"

Prompt: Can you look up Percent Effect on Histidine--tRNA ligase (Leishmania infantum) (UniProt A4I591) for Cc1nc(COC[C@@]23CCC[C@@H]2CN(Cc2nccs2)C3)cs1 ?
Completion: 15.8%

Prompt: Proceed to COCc1nc2cc(NCc3ccc(C)o3)ccc2o1
Completion: 102%

Prompt: Please give the result for CCC[C@@H]1CN(C(=O)c2ccccc2-c2ccccc2)C[C@H]1N(C)C too.
Completion: 8.57%

Prompt: # repeat for CC(=O)N1CCO[C@@H]2CN(S(=O)(=O)c3cccs3)CC[C@@H]2C1
Completion: 5.66%

Prompt: What do you have for Cc1cncc(C(=O)N2C[C@@H]3CN(S(C)(=O)=O)CCO[C@@H]3C2)c1 ?
Completion: 15.1%

Prompt: Same again, this time with COc1ccc(CN2C[C@@H]3CN(Cc4ccncc4)C[C@@H]3C2=O)cc1
Completion: 13.6%

Prompt: What do you have for Cc1ccc(C(=O)N2C[C@@H]3CCCO[C@@H]3[C@H](N(C)Cc3ccco3)C2)o1 ?
Completion: 3.23%
